- system: Carbonic anhydrase 2 (Homo sapiens)
- assay protocol: CAII small-molecule binders, profiling panel, biochemical, small-molecule microarray, Alexa647-labelled CAII (AID 1122)
- assay setup: CAII-A647 binding fluorescence, higher = more signal
Label criterion not met if composite z-score falls below 0.01; label criterion met in every other case.

| compound | category label |
| --- | --- |
| CCOC(=O)[C@H](Cc1ccccc1)NC(=O)CCC1CC(OC(=O)NCCc2ccc(F)cc2)CC2(CCCC(COC(=O)NCCc3ccc(Cl)cc3)O2)O1 (stereo not given in full) | criterion met |
| CCOC(=O)[C@H](CC(C)C)NC(=O)CCC1CC(OC(=O)NCc2ccc3c(c2)OCO3)CC2(CCCC(COC(=O)NCC3CCCCC3)O2)O1 (stereo not given in full) | criterion met |
| Cc1ccc(S(=O)(=O)N[C@H]2COC(=O)CC=C[C@H](C)[C@@H](NS(=O)(=O)c3ccc(C)cc3)COC(=O)CC=C[C@@H]2C)cc1 | criterion not met |
| CC(CCN1CCCCc2nc(C)c(C)cc21)=NO[C@H](C)c1cn([C@H](CO)Cc2ccccc2)nn1 | criterion not met |
| CC(CCN1CCc2nc(-c3ccccc3)c(-c3ccccc3)cc2C1)=NOC[C@@H](O)COCc1ccco1 | criterion met |

* * *

- assay protocol: E. coli growth modulation, two-sided OD650, primary screen, E. coli filamentation project, strain DRC41, 24 h (AID 1093);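 also: MC1000 strain lacking acrAB efflux and sulA so SOS filamentation is blocked; test concentration not given here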
- assay setup: OD650, 24 h, higher = more signal, called active from +8 up or from −8 down
Below, each entry is listed alongside its reported z-score.
measured quantity: z-score

| molecule | quantitative result |
| --- | --- |
| CC(C)CON=C1C[C@@H](O)[C@@H](O)[C@@H]2[C@@H]3C(=O)N(C(C)(C)C)C(=O)[C@@H]3CC[C@H]12 | 0.573 |
| CO[C@H]1COC(=O)CC=C[C@@H](C)[C@H](NS(=O)(=O)c2ccc(C)cc2)COC(=O)CCC[C@@H]1C | -0.0537 |
| COC(=O)[C@H]1O[C@@H](c2c(OC)c(OC)c(C)c(OC)c2OC)[C@H](C)[C@@H](O)[C@H]1C | 0.196 |
| CC(C)[C@@H](OCc1ccccc1)[C@H](C)C=NOC[C@@H](O)COCc1ccco1 | 0.799 |
| COC(=O)CC=C[C@@H](C)[C@@H](C=NOCC[C@@H]1C=C[C@H](OC(C)=O)[C@@H](COC(C)=O)O1)OC | -0.152 |
| CCOC(=O)[C@H](CC(C)C)NC(=O)CCC1CC(OC(=O)NCc2cccc3ccccc23)CC2(CCCC(COC(=O)NCC3CCCCC3)O2)O1 (stereo partly specified) | -0.683 |
| CCc1cc2c(nc1CC)CCN(CCC(C)=NO[C@@H](C)c1cn([C@H](CO)Cc3ccccc3)nn1)C2 | -0.189 |
| CC(=O)OC[C@H]1O[C@H](CCON=C2[C@H]3CCn4c(=O)n(-c5ccccc5)c(=O)n4[C@H]3[C@H](O)[C@@H]3O[C@H]23)C=C[C@@H]1OC(C)=O | 0.93 |
| C#CCCCON=C1C[C@@H](O)[C@@H](O)[C@@H]2[C@@H]3C(=O)N(C(C)(C)C)C(=O)[C@@H]3CC[C@H]12 | 0.216 |
| CO[C@@H]1COC(=O)[C@H](CCSC)NC(=O)CC=C[C@@H](C)COC(=O)[C@H](C)NC(=O)CC=C[C@H]1C | 1.01 |
| CCOC(=O)[C@H](CC(C)C)NC(=O)CCC1CC(OC(=O)NCc2ccc3c(c2)OCO3)CC2(CCCC(COC(=O)NCC3CCCCC3)O2)O1 (stereo partly specified) | 0.409 |

Origin of measurements: PubChem BioAssay
